Just for reference, ChEMBL document CHEMBL1123615 is where these values come from.

# Tested on: Mus musculus
# assaySummary: Inhibition of ataxia in mice by intraperitoneal administration.
# Format: functional
# conditionsUsed: ip
readoutType: ED50

Some solved entries appear below for comparison.
chemicalStructure | targetOfAssay | ED50
Cc1[nH]n(C(C)C)c(=O)c1C(=N)c1cccc(Cl)c1 | Mus musculus | > 30 mg/kg
Cc1[nH]n(C)c(=O)c1C(=N)c1ccc(Cl)cc1 | Mus musculus | > 56 mg/kg
Cc1[nH]n(C)c(=O)c1C(=N)c1cccc(Br)c1 | Mus musculus | > 30 mg/kg

Okay, next one:
For reference, reported ED50 for `Cc1[nH]n(C)c(=O)c1C(=N)c1ccc(C(F)(F)F)cc1` stands at > 30 mg/kg
